biological target: human NaV subtype, like NaV 1.7 (Homo sapiens); test: E-VIPR optical membrane potential assay with electrical stimulation; assay type: cell-based; details: active against one or more sodium channels; assay and NaV subtype not specified for Table 3; read-out: IC50 Binned Activity Data
Sequence (Q15858 whole entry): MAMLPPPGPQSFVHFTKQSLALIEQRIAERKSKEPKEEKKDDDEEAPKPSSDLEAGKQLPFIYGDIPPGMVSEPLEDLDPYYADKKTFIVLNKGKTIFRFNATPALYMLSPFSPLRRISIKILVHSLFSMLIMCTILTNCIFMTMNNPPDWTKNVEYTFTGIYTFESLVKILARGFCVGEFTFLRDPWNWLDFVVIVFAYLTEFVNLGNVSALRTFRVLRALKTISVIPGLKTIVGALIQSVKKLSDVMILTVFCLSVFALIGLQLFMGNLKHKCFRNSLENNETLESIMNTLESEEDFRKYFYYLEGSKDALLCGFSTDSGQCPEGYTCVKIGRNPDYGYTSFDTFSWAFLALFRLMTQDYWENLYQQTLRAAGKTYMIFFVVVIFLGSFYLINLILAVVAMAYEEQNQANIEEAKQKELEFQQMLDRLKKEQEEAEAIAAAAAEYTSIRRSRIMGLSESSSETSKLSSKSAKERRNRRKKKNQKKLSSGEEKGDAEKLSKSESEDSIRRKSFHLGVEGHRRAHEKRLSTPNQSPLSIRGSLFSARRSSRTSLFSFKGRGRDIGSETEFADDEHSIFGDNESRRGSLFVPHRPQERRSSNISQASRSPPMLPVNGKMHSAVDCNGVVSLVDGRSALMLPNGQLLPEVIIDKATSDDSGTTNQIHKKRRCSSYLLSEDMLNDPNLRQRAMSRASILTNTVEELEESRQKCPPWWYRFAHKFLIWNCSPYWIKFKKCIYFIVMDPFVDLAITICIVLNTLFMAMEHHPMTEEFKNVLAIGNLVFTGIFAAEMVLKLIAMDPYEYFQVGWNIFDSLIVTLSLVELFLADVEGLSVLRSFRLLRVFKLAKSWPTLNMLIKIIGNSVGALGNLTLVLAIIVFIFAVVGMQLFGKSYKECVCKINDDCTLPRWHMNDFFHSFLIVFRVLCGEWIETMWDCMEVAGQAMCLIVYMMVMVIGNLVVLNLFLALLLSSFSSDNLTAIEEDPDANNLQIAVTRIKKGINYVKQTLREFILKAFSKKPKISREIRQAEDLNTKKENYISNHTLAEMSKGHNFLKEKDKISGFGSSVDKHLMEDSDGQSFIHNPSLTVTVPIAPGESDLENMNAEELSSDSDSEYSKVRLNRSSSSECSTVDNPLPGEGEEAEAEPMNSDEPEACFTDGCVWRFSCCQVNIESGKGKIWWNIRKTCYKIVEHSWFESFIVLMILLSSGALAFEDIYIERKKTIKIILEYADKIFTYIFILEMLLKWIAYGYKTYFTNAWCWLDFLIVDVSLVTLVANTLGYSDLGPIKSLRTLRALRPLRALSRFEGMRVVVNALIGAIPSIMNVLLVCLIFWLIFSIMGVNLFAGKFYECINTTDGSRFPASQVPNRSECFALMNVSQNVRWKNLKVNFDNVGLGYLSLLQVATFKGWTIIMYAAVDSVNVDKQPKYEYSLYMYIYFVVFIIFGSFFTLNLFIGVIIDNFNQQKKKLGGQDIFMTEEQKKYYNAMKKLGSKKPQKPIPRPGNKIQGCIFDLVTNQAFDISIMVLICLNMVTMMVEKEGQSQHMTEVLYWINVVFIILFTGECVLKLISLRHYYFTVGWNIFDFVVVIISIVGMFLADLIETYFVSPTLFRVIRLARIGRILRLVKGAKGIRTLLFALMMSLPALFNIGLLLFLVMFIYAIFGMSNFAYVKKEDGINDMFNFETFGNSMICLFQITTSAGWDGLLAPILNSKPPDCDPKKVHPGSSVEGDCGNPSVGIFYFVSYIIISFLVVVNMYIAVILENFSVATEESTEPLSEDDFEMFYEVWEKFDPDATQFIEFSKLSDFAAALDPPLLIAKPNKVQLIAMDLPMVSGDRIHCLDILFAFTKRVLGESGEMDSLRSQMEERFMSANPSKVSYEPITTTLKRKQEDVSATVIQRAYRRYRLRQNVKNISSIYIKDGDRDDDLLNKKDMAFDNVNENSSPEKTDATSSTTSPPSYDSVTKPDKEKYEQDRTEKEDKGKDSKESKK
What IC50 was measured for each of the following?

Value lookup for IC50; key = COCC1CN(CC2CCCCC2)CC2(CCN(C(=O)c3ccc(OC(C)C)c(C)c3)CC2)O1 (stereo not drawn) [Compound 206]
< 2 µM

Bench note: what IC50 did Cc1cc(C(=O)N2CCC3(CC2)CN(CC(F)F)CC(c2ccccn2)O3)ccc1OCCO (stereo not drawn) [Compound 296] show?
> 5 µM

Query: IC50; subject: CCN1CC2(CCN(C(=O)c3ccc(OC(C)C)c(OC)c3)CC2)OCC1c1ccccc1 (stereo not drawn) [Compound 43]
2 to 5 µM

Please look up its IC50: COc1cc(C(=O)N2CCC3(CC2)CN(CC#N)CC(c2ccccc2)O3)ccc1C(C)(C)O (stereo not drawn) [Compound 115]
2 to 5 µM

Can you share its IC50? I mean this compound: CCC1CN(c2ccccn2)CC2(CCN(C(=O)c3ccc(C4(O)CCCCC4)cc3)CC2)O1 (stereo not drawn) [Compound 54]
< 2 µM

Which measured IC50 value corresponds to CCC1COC2(CCN(C(=O)c3ccc(OC(C)C)c(C)c3)CC2)CN1CC (stereo not drawn) [Compound 40] ?
> 5 µM

What value of IC50 has been reported for the following compound? COc1cc(C(=O)N2CCC3(CC2)CN(CC(F)(F)F)CC(c2ncc(C)s2)O3)ccc1OC(C)C (stereo not drawn) [Compound 152]
< 2 µM

Bench note: what IC50 did Cc1cc(C(=O)N2CCC3(CC2)CN(CC(F)F)CC(c2ccc(F)cc2)O3)ccc1OCCCO (stereo not drawn) [Compound 81] show?
> 5 µM

Recorded IC50 of CCC1CN(c2ncccn2)CC2(CCN(C(=O)c3ccc(C(O)(CC)CC)c(C)c3)CC2)O1 (stereo not drawn) [Compound 1] , please.
2 to 5 µM
